- method.summary: Effect of 5% by weight additives on prothioconazole in N,N-dimethyldecanamide, LED 350 nm, 24 hours
- Assay type: physicochemical
- recorded.conditions: 0.4 g prothioconazole, 1.5 g N,N-dimethyldecanamide, 0.1 g stabiliser (5% by weight), 19 mW/cm^2, 24 hours, Comparison without additive 1539 ppm
measured.metric: Compound III (ppm)
Answers are plain numbers, in ppm.

The cases that follow already have their Compound III (ppm) on record.
| compound | Compound III (ppm) |
| --- | --- |
| O=C(O)/C=C/c1ccc(O)c(O)c1 [Caffeic acid] | 616 |
| O=C(O)c1cc(O)c(O)c(O)c1 [Gallic acid] | 3700 |
| O[C@H](CS)[C@H](O)CS (racemic) [DL-Dithiothreitol] | 749 |
| Cc1cc(O)cc2c1O[C@](C)(CCC[C@H](C)CCC[C@H](C)CCCC(C)C)CC2 [(+)-delta-Tocopherol] | 81 |
| COc1ccc(O)cc1 [4-Methoxyphenol] | 1706 |

For each listed entry, give its Compound III (ppm).
1. CCCCC(CC)COC(=O)C(C#N)=C(c1ccccc1)c1ccccc1 (centres unmarked) [Octocrylene]
2. O=C(O)CNC(=O)CCS [N-(Mercaptopropionyl)glycine]
3. O=C(O)C=Cc1ccc(O)cc1 [4-Hydroxycinnamic acid]
4. Cc1cc(C(C)(C)C)c(O)c(C(C)(C)C)c1 [Butylated hydroxytoluene (BHT), Butylated hydroxytoluene]
5. COc1cc(/C=C/C(=O)O)ccc1O [Ferulic acid]
6. C=CCc1ccc(O)c(OC)c1 [Eugenol]

1377
1102
2754
576
2059
580

The values you see were collected from patent US20220183279A1.
